Biological target: HDAC6 (Homo sapiens, UniProt Q9UBN7)
Sequence (Q9UBN7 1-1215): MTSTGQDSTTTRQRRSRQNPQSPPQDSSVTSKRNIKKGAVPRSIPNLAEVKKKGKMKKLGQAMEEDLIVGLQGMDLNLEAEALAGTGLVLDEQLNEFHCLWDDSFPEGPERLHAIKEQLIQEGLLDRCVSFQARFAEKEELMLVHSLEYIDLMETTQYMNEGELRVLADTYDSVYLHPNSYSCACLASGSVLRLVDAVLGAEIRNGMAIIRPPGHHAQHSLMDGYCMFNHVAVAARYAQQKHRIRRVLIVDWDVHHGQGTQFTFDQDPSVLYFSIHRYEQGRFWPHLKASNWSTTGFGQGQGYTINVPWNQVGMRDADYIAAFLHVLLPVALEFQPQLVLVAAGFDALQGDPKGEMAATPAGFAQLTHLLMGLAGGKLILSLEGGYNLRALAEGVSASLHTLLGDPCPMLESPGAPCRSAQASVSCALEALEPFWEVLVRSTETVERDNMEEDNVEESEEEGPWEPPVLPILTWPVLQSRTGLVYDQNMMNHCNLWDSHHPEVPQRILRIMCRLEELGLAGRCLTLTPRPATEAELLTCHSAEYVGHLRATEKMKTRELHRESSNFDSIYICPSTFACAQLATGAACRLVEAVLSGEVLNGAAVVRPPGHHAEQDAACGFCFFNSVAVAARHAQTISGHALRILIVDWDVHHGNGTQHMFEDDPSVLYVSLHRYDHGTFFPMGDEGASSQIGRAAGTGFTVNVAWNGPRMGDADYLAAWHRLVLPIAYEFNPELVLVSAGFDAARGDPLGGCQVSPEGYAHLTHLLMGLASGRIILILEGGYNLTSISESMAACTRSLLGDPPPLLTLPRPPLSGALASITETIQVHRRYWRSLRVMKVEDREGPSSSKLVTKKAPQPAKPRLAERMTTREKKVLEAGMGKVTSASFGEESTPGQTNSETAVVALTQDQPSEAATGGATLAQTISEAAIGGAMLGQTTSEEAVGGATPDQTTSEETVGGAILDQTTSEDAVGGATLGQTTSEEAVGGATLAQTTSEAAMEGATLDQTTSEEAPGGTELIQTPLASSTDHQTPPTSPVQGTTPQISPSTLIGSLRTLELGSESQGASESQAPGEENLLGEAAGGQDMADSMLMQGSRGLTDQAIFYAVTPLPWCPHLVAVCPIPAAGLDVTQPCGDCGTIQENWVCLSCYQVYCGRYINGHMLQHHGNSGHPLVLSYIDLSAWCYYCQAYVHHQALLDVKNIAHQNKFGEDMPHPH
pIC50: −log10 of the molar value.
Reported values of pIC50 for individual entries

{"columns": ["LINE NOTATION", "TARGET", "pIC50"],
 "data": [
  ["CCc1nc2cc(F)c(/C=C/C(=O)NO)cc2c(=O)n1-c1ccc(OC)cc1C", "HDAC6 (Homo sapiens, UniProt Q9UBN7)", 7.59],
  ["CCc1nc2cc(F)c(/C=C/C(=O)NO)cc2c(=O)n1-c1cccc(C)c1C", "HDAC6 (Homo sapiens, UniProt Q9UBN7)", 7.26],
  ["CCc1nc2c(F)cc(/C=C/C(=O)NO)cc2c(=O)n1-c1c(C)cccc1C", "HDAC6 (Homo sapiens, UniProt Q9UBN7)", 6.80],
  ["Cc1ccccc1-n1c(C)nc2cc(F)c(/C=C/C(=O)NO)cc2c1=O", "HDAC6 (Homo sapiens, UniProt Q9UBN7)", 7.70],
  ["CCc1nc2cc(F)c(/C=C/C(=O)NO)cc2c(=O)n1-c1ccc(Br)cc1C", "HDAC6 (Homo sapiens, UniProt Q9UBN7)", 7.22]
]}

* * *

Test: Oral pharmacokinetics (Table II)
Set-up: concentration or dose not given beside the values
Details: in vivo, unit inferred
Reported values of AUC for individual entries

{"columns": ["COMPOUND", "AUC"],
 "data": [
  ["CCc1nc2cc(F)c(/C=C/C(=O)NO)cc2c(=O)n1-c1ccc(OC)cc1C [Compound 34]", "11000 ng·h/mL"],
  ["CCc1nc2cc(F)c(/C=C/C(=O)NO)cc2c(=O)n1-c1ccc(F)cc1C [Compound 26]", "12000 ng·h/mL"],
  ["CCc1nc2c(F)cc(/C=C/C(=O)NO)cc2c(=O)n1-c1c(C)cccc1C [Compound 11]", "7180 ng·h/mL"],
  ["CCc1nc2cc(F)c(/C=C/C(=O)NO)cc2c(=O)n1-c1cccc(C)c1C [Compound 22]", "9920 ng·h/mL"],
  ["CCc1nc2cc(F)c(/C=C/C(=O)NO)cc2c(=O)n1-c1c(C)cccc1C [Compound 2]", "12500 ng·h/mL"],
  ["Cc1ccccc1-n1c(C)nc2cc(F)c(/C=C/C(=O)NO)cc2c1=O [Compound 44]", "5720 ng·h/mL"],
  ["CCc1nc2cc(F)c(/C=C/C(=O)NO)cc2c(=O)n1-c1ccc(Br)cc1C [Compound 6]", "42600 ng·h/mL"],
  ["CCc1nc2cc(F)c(/C=C/C(=O)NO)cc2c(=O)n1-c1ccccc1 [Compound 33]", "11000 ng·h/mL"],
  ["Cc1cccc(C)c1-n1c(C)nc2cc(F)c(/C=C/C(=O)NO)cc2c1=O [Compound 1]", "5830 ng·h/mL"]
]}

* * *

Reported values of Cmax for individual entries
Assay: Oral pharmacokinetics (Table II)
Settings: in vivo

{"columns": ["MOLECULE", "MEASUREMENT UNIT", "Cmax"],
 "data": [
  ["CCc1nc2cc(F)c(/C=C/C(=O)NO)cc2c(=O)n1-c1c(C)cccc1C [Compound 2]", "ng/mL", 1150],
  ["CCc1nc2c(F)cc(/C=C/C(=O)NO)cc2c(=O)n1-c1c(C)cccc1C [Compound 11]", "ng/mL", 727],
  ["Cc1cccc(C)c1-n1c(C)nc2cc(F)c(/C=C/C(=O)NO)cc2c1=O [Compound 1]", "ng/mL", 4130],
  ["Cc1ccccc1-n1c(C)nc2cc(F)c(/C=C/C(=O)NO)cc2c1=O [Compound 44]", "ng/mL", 719],
  ["CCc1nc2cc(F)c(/C=C/C(=O)NO)cc2c(=O)n1-c1ccc(Br)cc1C [Compound 6]", "ng/mL", 3630],
  ["CCc1nc2cc(F)c(/C=C/C(=O)NO)cc2c(=O)n1-c1ccc(OC)cc1C [Compound 34]", "ng/mL", 873],
  ["CCc1nc2cc(F)c(/C=C/C(=O)NO)cc2c(=O)n1-c1ccccc1 [Compound 33]", "ng/mL", 2720],
  ["CCc1nc2cc(F)c(/C=C/C(=O)NO)cc2c(=O)n1-c1ccc(F)cc1C [Compound 26]", "ng/mL", 2680],
  ["CCc1nc2cc(F)c(/C=C/C(=O)NO)cc2c(=O)n1-c1cccc(C)c1C [Compound 22]", "ng/mL", 3330]
]}

* * *

Target: HDAC6 (Homo sapiens)
Construct: GST (N); host or cells: baculovirus expression system, Sf9 insect cells
Sequence (Q9UBN7 1-1215): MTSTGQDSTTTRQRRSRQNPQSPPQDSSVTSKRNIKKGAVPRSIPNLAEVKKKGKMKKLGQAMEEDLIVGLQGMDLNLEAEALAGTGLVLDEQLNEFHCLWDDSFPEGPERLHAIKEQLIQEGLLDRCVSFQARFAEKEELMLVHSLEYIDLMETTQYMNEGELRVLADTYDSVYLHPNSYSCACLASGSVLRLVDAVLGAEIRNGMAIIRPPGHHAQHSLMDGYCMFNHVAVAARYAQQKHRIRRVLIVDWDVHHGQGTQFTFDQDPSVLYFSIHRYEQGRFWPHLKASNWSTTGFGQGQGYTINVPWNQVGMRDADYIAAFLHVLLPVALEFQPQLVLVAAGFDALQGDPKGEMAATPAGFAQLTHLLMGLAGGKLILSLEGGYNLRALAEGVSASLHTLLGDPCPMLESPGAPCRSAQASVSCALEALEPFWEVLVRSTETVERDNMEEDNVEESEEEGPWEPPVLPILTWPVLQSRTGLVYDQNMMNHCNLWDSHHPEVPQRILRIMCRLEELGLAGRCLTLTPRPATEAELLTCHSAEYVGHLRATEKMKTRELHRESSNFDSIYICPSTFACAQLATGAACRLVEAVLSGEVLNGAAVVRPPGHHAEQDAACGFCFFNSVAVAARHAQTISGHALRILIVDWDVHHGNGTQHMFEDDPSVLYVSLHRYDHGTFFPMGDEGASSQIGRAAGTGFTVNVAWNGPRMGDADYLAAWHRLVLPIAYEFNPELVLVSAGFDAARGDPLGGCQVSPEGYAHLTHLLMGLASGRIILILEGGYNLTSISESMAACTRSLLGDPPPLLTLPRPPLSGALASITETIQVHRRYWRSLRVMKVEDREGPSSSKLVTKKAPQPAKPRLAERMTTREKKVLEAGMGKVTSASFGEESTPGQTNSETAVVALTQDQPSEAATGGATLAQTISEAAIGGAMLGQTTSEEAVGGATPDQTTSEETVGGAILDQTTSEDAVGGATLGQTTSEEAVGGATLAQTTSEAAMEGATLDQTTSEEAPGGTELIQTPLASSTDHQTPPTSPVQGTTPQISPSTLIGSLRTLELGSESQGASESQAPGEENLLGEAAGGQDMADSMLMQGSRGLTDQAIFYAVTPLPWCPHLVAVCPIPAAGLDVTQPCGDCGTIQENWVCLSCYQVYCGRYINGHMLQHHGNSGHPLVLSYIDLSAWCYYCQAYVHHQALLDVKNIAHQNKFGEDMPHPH
Test: HDAC6 activity, acetylated-AMC-labeled peptide substrate
Type: biochemical
Settings: HDAC1 IC50 / HDAC6 IC50
MEASURED ENDPOINT: HDAC6 selectivity (A)/(B)

{"columns": ["LINE NOTATION", "VALUE OBSERVED"],
 "data": [
  ["CCc1nc2cc(F)c(/C=C/C(=O)NO)cc2c(=O)n1-c1cccc(C)c1C", 77],
  ["Cc1cccc(C)c1-n1c(C)nc2cc(F)c(/C=C/C(=O)NO)cc2c1=O", 328],
  ["CCc1nc2cc(F)c(/C=C/C(=O)NO)cc2c(=O)n1-c1ccc(F)cc1C", 180],
  ["CCc1nc2cc(F)c(/C=C/C(=O)NO)cc2c(=O)n1-c1ccc(OC)cc1C", 175],
  ["CCc1nc2cc(F)c(/C=C/C(=O)NO)cc2c(=O)n1-c1ccc(Br)cc1C", 85],
  ["Cc1ccccc1-n1c(C)nc2cc(F)c(/C=C/C(=O)NO)cc2c1=O", 129],
  ["CCc1nc2cc(F)c(/C=C/C(=O)NO)cc2c(=O)n1-c1ccccc1", 134],
  ["CCc1nc2c(F)cc(/C=C/C(=O)NO)cc2c(=O)n1-c1c(C)cccc1C", 43],
  ["CCc1nc2cc(F)c(/C=C/C(=O)NO)cc2c(=O)n1-c1c(C)cccc1C", 2585]
]}
